biological target: T1, human chemokine (C-C motif) receptor 8 (CCR8) (human, UniProt P51685 1-355); test: flow cytometry blocking, PBMC CCR8+ CD4+ cells; competitor PE-AB12 (its MFI is read)
T1 construct: On human peripheral blood lymphocytes / PBMC (native) or on human CCR8 GFP-transfected Ba/F3 cells; also called hCCR8; human CCR8
T1 sequence (P51685 whole entry): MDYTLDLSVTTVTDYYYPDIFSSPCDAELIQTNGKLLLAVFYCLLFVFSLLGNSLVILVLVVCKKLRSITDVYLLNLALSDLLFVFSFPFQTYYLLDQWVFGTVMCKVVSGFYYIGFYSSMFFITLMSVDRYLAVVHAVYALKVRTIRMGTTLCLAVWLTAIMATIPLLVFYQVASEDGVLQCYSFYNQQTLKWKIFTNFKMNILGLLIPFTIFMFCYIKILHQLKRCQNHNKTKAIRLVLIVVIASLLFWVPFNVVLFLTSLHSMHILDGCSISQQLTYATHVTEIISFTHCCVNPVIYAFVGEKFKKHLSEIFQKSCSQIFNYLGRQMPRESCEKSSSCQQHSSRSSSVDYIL
VALUE_KIND: MFI
Numbers only.

{"columns": ["BINDER", "MEASURED_RESULT"],
 "data": [
  ["AB8 (antibody, V domains shown, Hybridoma monoclonal; also called antibody 8; clone 8) VH: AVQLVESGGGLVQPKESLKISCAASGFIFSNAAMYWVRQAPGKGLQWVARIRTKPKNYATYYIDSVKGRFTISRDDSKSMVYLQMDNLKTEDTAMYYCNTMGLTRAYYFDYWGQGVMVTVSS VL: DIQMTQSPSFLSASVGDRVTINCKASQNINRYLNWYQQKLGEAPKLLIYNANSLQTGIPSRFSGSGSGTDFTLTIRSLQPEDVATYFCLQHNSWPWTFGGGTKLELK", 773]
]}

// input: 2 binders below; output: MFI for each
1. AB12 (antibody, V domains shown, Hybridoma monoclonal; also called antibody 12; clone 12) VH: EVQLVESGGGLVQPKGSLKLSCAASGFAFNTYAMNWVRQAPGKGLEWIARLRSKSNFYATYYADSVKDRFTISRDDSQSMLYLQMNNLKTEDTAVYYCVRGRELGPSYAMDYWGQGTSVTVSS VL: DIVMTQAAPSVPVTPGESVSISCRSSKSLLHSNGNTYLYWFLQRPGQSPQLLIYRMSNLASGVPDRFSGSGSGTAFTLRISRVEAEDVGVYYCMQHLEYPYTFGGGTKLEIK
2. AB4 (antibody, V domains shown, Hybridoma monoclonal; also called antibody 4; clone 4) VH: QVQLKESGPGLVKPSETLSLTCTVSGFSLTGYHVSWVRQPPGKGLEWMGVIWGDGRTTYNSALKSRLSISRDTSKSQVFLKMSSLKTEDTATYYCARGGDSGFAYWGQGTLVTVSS VL: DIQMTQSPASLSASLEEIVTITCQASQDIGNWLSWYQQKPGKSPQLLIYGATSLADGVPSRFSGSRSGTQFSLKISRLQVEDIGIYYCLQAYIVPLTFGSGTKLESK

1: 1030; 2: 1020

Source: patent US20240360228A1
